Reference source for all entries: paper PMC7251097

target_under_test: His6-AspH315–758 (human aspartate/asparagine-β-hydroxylase, AspH) (Homo sapiens)
Construct: N-Terminally His6-tagged human AspH315–758 (His6-AspH315–758) was produced in E. coli BL21 (DE3) cells; made in house; host or cells: E. coli BL21 (DE3), pET-28a(+) vector
Sequence (Q12797 315-758): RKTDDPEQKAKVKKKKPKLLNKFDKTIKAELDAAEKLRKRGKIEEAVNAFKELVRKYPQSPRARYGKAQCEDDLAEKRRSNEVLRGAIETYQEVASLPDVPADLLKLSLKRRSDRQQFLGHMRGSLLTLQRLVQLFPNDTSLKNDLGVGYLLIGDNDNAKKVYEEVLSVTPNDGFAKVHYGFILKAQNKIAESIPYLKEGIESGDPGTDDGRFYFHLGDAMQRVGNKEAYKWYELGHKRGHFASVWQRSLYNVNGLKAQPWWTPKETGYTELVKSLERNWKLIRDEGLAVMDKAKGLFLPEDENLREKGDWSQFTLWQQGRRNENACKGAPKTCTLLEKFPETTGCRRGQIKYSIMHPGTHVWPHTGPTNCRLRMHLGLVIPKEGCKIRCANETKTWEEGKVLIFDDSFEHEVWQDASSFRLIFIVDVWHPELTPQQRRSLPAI
method_notes: SPE-MS AspH inhibition assay (LOPAC screen at fixed 20 μM and IC50 dose-response), hydroxylation of cyclic peptide hFX-CP101–119
Assay type: biochemical
conditions_used: AspH activity; fixed compound concentration 20 μM; initial LOPAC screen; 0.5%v/v DMSO
test_readout: Inhibition at 20 µM [%]

>  <molecule>
CC(Cc1ccc(O)c(O)c1)C(C)Cc1ccc(O)c(O)c1 (stereo not drawn) [Nordihydroguaiaretic acid, reference compound]

>  <target_under_test>
His6-AspH315–758 (human aspartate/asparagine-β-hydroxylase, AspH) (Homo sapiens)

>  <reported_measurement>
98.9%

$$$$
>  <molecule>
Br.C=CCN1CCc2c(cc(O)c(O)c2Br)[C@@H](c2ccccc2)C1 [R(+)-6-Bromo-APB hydrobromide, reference compound]

>  <target_under_test>
His6-AspH315–758 (human aspartate/asparagine-β-hydroxylase, AspH) (Homo sapiens)

>  <reported_measurement>
95.0%

$$$$
>  <molecule>
Br.Oc1cc2c(c(Cl)c1O)CCNCC2c1ccccc1 (racemic) [(±)-6-Chloro-PB hydrobromide, reference compound]

>  <target_under_test>
His6-AspH315–758 (human aspartate/asparagine-β-hydroxylase, AspH) (Homo sapiens)

>  <reported_measurement>
98.8%

$$$$
